Numbers sourced from patent US20180194862A1.

# tgt: human CD40 on cells (HEK293 stable transfectants, HEK-Blue CD40 cells, human B cells, monocytic cells, … (human, UniProt P25942 21-277))
# Sequence (P25942 21-277 limits assumed): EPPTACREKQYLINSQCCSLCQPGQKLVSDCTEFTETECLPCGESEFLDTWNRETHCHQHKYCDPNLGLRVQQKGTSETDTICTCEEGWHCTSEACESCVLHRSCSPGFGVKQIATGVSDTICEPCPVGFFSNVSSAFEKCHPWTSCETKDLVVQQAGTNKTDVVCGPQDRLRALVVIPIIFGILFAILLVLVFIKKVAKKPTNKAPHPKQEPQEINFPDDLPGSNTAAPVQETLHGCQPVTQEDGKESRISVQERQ
# experiment: cell-based or functional assay
quantity: NF-κB activation EC50, HEK293 CD40 NFκB reporter cells (µg/mL)
Form entry: value (µg/mL) — number only.

[[record]]
binder = "huAb6-2 (antibody, human IgG1, V domains shown, human IgG1, kappa) VH: EVQLVQSGAEVKKPGSSVKVSCKASGYTFTSYWMHWVRQAPGQGLEWIGNIDPSNGETHYNQKFKDRVTITVDKSTSTAYMELSSLRSEDTAVYYCARERIYYSGSTYDGYFDVWGQGTTVTVSS VL: DIQLTQSPSFLSASVGDRVTITCSASSSLSYMHWYQQKPGKSPKRWIYDTSKLASGVPSRFSGSGSGTEYTLTISSLQPEDFATYYCQQWSSNPWTFGGGTKVEIK"
value_unit = "µg/mL"
numeric_readout = 1.21


**Query** Find the recorded NF-κB activation EC50, HEK293 CD40 NFκB reporter cells belonging to huAb9-4 (antibody, human IgG1, V domains shown, human IgG1, kappa) VH: EVQLQESGPGLVKPSETLSLTCTVSGYSITSNYYWNWIRQPPGKGLEWMGYIRYDGSNNYNPSLKNRITISRDTSKNQFSLKLSSVTAADTAVYYCARLDYWGQGTTVTVSS VL: DAVMTQTPLSLSVTPGQPASISCRSSQSLENTNGNTFLNWYLQKPGQSPQLLIYRVSNRFSGVPDRFSGSGSGTDFTLKISRVEAEDVGVYYCLQVTHVPFTFGQGTKLEIK and report it.
**Result** 5.55

**Query** Query (binder): huAb9-1 (antibody, human IgG1, V domains shown, human IgG1, kappa) VH: EVQLQESGPGLVKPSETLSLTCTVSGYSITSNYYWNWIRQPPGKGLEWMGYIRYDGSNNYNPSLKNRITISRDTSKNQFSLKLSSVTAADTAVYYCARLDYWGQGTTVTVSS VL: DAVMTQTPLSLSVTPGQPASISCRSSQSLENTNGNTFLNWFLQKPGQSPQLLIYRVSNRFSGVPDRFSGSGSGTDFTLKISRVEAEDVGVYFCLQVTHVPFTFGQGTKLEIK ; field requested: NF-κB activation EC50, HEK293 CD40 NFκB reporter cells
**Result** 0.19

**Query** Look at this binder and give its reported NF-κB activation EC50, HEK293 CD40 NFκB reporter cells. huAb9-2 (antibody, human IgG1, V domains shown, human IgG1, kappa) VH: EVQLQESGPGLVKPSETLSLTCTVSGYSITSNYYWNWIRQPPGKGLEWMGYIRYDGSNNYNPSLKNRVTISRDTSKNQFSLKLSSVTAADTAVYYCARLDYWGQGTTVTVSS VL: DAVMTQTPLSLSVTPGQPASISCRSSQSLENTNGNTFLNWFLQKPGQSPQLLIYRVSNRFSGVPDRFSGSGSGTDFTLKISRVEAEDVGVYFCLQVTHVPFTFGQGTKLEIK
**Result** 0.29
